system: U2OS; experiment: Incucyte cell viability with U2OS; type: toxicity, cell-based; details: human, 6 h, 10 µM, compound concentration 10 uM, replicate number 2, timepoint 6 hours; also: unitless GR value; below 1 slowed growth and below 0 cell loss
Measured Growth Rate values are reported for all entries that follow.
Measured Parameter: Growth Rate

1. CC1(C)SSC(C)(C)[C@@H](NC(=O)[C@@H](N)Cc2ccc(O)cc2)C(=O)NCC(=O)N[C@@H](Cc2ccccc2)C(=O)N[C@H]1C(=O)O.O=C(O)C(F)(F)F: 0.94
2. CN(c1ncccc1CNc1ccnc(-c2nc3c(F)c(Cl)ccc3[nH]2)n1)S(C)(=O)=O: 0.61
3. CCCN1CCC[C@@H]2Cc3n[nH]cc3C[C@H]21.Cl [QUINPIROLE HYDROCHLORIDE]: 0.9
4. Nc1nc(-c2ccco2)c2cnn(Cc3ccccc3F)c2n1: 0.28

---

test system: Fibroblast; assay: Incucyte cell viability with human fibroblast; type: toxicity, cell-based; settings: 0 h, 10 µM, compound concentration 10 uM, replicate number 2, timepoint 0 hours; also: unitless GR value; below 1 slowed growth and below 0 cell loss
Tag: y if measured Growth Rate is not below 0.6, n if it is.

1. O=C1NC(Nc2ccccc2)=N/C1=C\c1ccc2c(c1)OCO2: n
2. C[C@H]1[C@H](OC(=O)CCC(=O)O)O[C@@H]2O[C@@]3(C)CC[C@H]4[C@H](C)CC[C@@H]1[C@@]24OO3 [ARTESUNATE]: n
3. Cc1noc(-c2ccc(-c3ccc(CC(=O)O)cc3)cc2)c1NC(=O)O[C@H](C)c1ccccc1Cl: n
4. Cc1cc(OCCCS(C)(=O)=O)cc(C)c1-c1cccc(COc2ccc3c(c2)OC[C@H]3CC(=O)O)c1: y
5. COc1ccc(CN(CCN(C)C)c2ccccn2)cc1: y
6. COC(=O)[C@H]1[C@H]2C[C@H]3c4[nH]c5ccccc5c4CCN3C[C@H]2CC[C@@H]1O.Cl [RAUWOLSCINE HYDROCHLORIDE]: n
7. S=C(NCCCc1c[nH]cn1)NCCCN(Cc1ccc(Cl)c(Cl)c1)c1ccc(Br)cn1: y

---

Measured Growth Rate values are reported for all entries that follow.
tested on: Fibroblast; assay: Incucyte cell viability with human fibroblast; format: toxicity, cell-based; conditions: 18 h, 10 µM, compound concentration 10 uM, replicate number 1, timepoint 18 hours; also: unitless GR value; below 1 slowed growth and below 0 cell loss
Measured Parameter: Growth Rate

1) Cc1nc2ccc(Oc3ccc(F)cc3)cc2c(=O)n1C[C@H]1CCCN(C(C)C)C1.Cl: -0.42
2) N[C@](CC1c2ccccc2Oc2ccccc21)(C(=O)O)[C@H]1C[C@@H]1C(=O)O: 0.9
3) N#Cc1cc2c(OCC(O)CN3CCN(C(c4ccccc4)c4ccccc4)CC3)cccc2[nH]1 (racemic): -0.05
4) CCCCCCCCc1ccc(CCC(N)(CO)CO)cc1 [FINGOLIMOD]: -0.82
5) CCCN(CCC)CCc1cccc2c1CC(=O)N2.Cl [ROPINIROLE HYDROCHLORIDE]: 0.67

---

tested on: HEK-293T; assay: Incucyte cell viability with HEK293T; assay type: toxicity, cell-based; conditions: human, 24 h, 10 µM, compound concentration 10 uM, replicate number 1, timepoint 24 hours; also: unitless GR value; below 1 slowed growth and below 0 cell loss
Where a SMILES comes first, the peptide text is derived from it. [ ]: non-standard residue; d: D form.
Measured Parameter: Growth Rate

1. CN1[C@@H]2CC[C@H]1C[C@@H](OC(=O)C(CO)c1ccccc1)C2 (stereo partly specified) [ATROPINE]: 0.44
2. CC(C)C[C@@H]1NC(=O)[C@@H](C(C)C)NC(=O)[C@@H]2CCCN2C(=O)[C@@H](CC(=O)O)NC(=O)[C@@H](Cc2c[nH]c3ccccc23)NC1=O [BQ-123] (cyclo(L[dW][dD]P[dV])): 0.97
3. O=C(O)COc1cccc(-c2ocnc2-c2nc(-c3ccccc3)c(-c3ccccc3)o2)c1: 0.9
4. O=C([O-])[C@H]1O[C@H](OP(=O)([O-])OP(=O)([O-])OC[C@H]2O[C@@H](n3ccc(=O)[nH]c3=O)[C@H](O)[C@@H]2O)[C@H](O)[C@@H](O)[C@@H]1O.[Na+].[Na+].[Na+]: 0.84
5. Fc1cccc(/C=N/N=C/c2cccc(F)c2)c1: 0.96
6. COc1cc2c(Oc3ccc(NC(=O)C4(C(=O)Nc5ccc(F)cc5)CC4)cc3F)ccnc2cc1OCCCN1CCOCC1 [FORETINIB]: -0.54
7. NC(=O)c1cccc(-c2cc(Nc3ccc(OC(F)(F)F)cc3)ncn2)c1: 0.26
8. CC[C@@]1(O)C(=O)OCc2c1cc1n(c2=O)Cc2cc3ccccc3nc2-1 [CAMPTOTHECIN]: 0.65
9. O=C(c1cc(C2CC2)on1)N(C1CCCCC1)C1CCCCC1: 0.74
10. CCN1C(=CC(C)=O)Sc2ccc(OC)cc21: 0.72
11. COc1ccc2c(c1OCc1ccccc1)C[C@@H](C(=O)O)N(C(=O)C(c1ccccc1)c1ccccc1)C2 [OLODANRIGAN]: 0.86
12. CO/C1=C/C(C)=C\[C@@H](C)[C@@H](O)[C@@H](C)C/C(C)=C\C=C/[C@H](OC)C([C@@H](C)[C@@H](O)[C@H](C)[C@@]2(O)C[C@@H](O)[C@H](C)[C@@H](C(C)C)O2)OC1=O (stereo partly specified): -0.36
13. CC(C)(C)c1ccc(-c2coc3ccc(-c4cn[nH]c4)nc23)cc1: 0.67
14. CO[C@H]1CNC[C@@H](OCC2CCC(F)(F)CC2)[C@@H]1Nc1ncc(-c2cncc(C)c2)c2cc(C)c(=O)[nH]c12: 0.85
15. O=C(O)CCC/C=C\C[C@H]1C(=O)C[C@@H](O)[C@@H]1/C=C/[C@@H](O)CCc1ccccc1: 0.89
16. Cn1cnc(-c2cc3nccc(Oc4ccc(NC(=S)NC(=O)Cc5ccccc5)cc4F)c3s2)c1: 0.6

---

Measured Growth Rate values are reported for all entries that follow.
test system: U2OS; test: Incucyte cell viability with U2OS; format: toxicity, cell-based; conditions: human, 6 h, 10 µM, compound concentration 10 uM, replicate number 1, timepoint 6 hours; also: unitless GR value; below 1 slowed growth and below 0 cell loss
Measured Parameter: Growth Rate

1. CCC(=O)NCC[C@@H]1CCc2ccc3c(c21)CCO3: 0.45
2. CC(C)n1cc(-c2ccc(N3CCN(C)CC3)c(NC(=O)c3ccc(-c4ccncc4)o3)c2)cn1: -0.04
3. C[C@]12N[C@H](Cc3ccccc31)c1ccccc12: 0.6
4. COCCN1CCC(c2cc(CN(C)C(=O)c3cccc(Oc4ccccc4)c3)ccn2)CC1: 0.63
5. O=C1NCc2ccc3c(-c4cccc(Cl)c4)c[nH]c3c21: 0.17
6. O=C(O)c1ccccc1S(=O)(=O)NCCCCN1C(=O)c2cccc3cccc(c23)C1=O: 0.57
7. Cc1cc(CN)cc(C)c1-c1ncn(C)c1-c1ccnc2cc(F)ccc12: 0.54
8. CCCCC[C@H](O)/C=C/[C@H]1[C@H](O)CC(=O)[C@@H]1CCCCCCC(=O)O: -0.08
9. CCCCC(=O)N(Cc1ccc(-c2ccccc2-c2nnn[nH]2)cc1)[C@H](C(=O)O)C(C)C: 0.76

---

system: U2OS; test: Incucyte cell viability with U2OS; format: toxicity, cell-based; settings: human, 0 h, 10 µM, compound concentration 10 uM, replicate number 1, timepoint 0 hours; also: unitless GR value; below 1 slowed growth and below 0 cell loss
Tag: 1.0 if measured Growth Rate is not below 0, 0.0 if it is.

1. COc1ccc(NC(=O)c2ccc(-c3ccc(-c4noc(C)n4)cc3C)cc2)cc1OCCN(C)C.Cl: 0.0
2. Nc1nc(CC(=O)Nc2ccc(CCNC[C@H](O)c3ccccc3)cc2)cs1: 1.0
3. COc1cc(/C=C/C(=O)NCCn2c(C)cc3ccccc32)cc(OC)c1OC: 0.0
4. COc1cc(C(=O)N(CCCc2ccccc2)Cc2ccc(CC(=O)O)cc2)cc(OC)c1C: 0.0
5. CNc1nc(NCc2ncccn2)c2c(-c3ccc4ncccc4c3)c[nH]c2n1: 1.0
6. CCOC(=O)N[C@@H]1CC[C@@H]2[C@@H](C1)C[C@H]1C(=O)O[C@H](C)[C@H]1[C@H]2/C=C/c1ccc(-c2cccc(F)c2)cn1: 0.0
7. CC(=O)NCCc1c(Cc2ccccc2)[nH]c2ccccc12: 1.0
8. C[C@H](N)Cn1ccc2cc(F)c(Cl)cc21.O=C(O)/C=C/C(=O)O: 0.0

---

Measured Growth Rate values are reported for all entries that follow.
test system: HEK-293T; test: Incucyte cell viability with HEK293T; assay type: toxicity, cell-based; conditions: human, 0 h, 10 µM, compound concentration 10 uM, replicate number 2, timepoint 0 hours; also: unitless GR value; below 1 slowed growth and below 0 cell loss
Measured Parameter: Growth Rate

1) CN1C[C@H](C(=O)N[C@]2(C)O[C@@]3(O)[C@@H]4CCCN4C(=O)[C@H](Cc4ccccc4)N3C2=O)C[C@@H]2c3cccc4[nH]cc(c34)C[C@H]21.CS(=O)(=O)O [DIHYDROERGOTAMINE MESYLATE]: -0.38
2) CCCCC[C@H](O)/C=C/[C@H]1CCC(=O)[C@@H]1CCCCCCC(=O)O: -0.24
3) O=C1[C@H](Cc2ccc(O)cc2)N2C(=O)CCN(C(=O)NCc3ccccc3)[C@H]2CN1Cc1cccc2ccccc12: 0.37
4) C[C@H]1CN(C[C@H](Cc2ccccc2)C(=O)NCC(=O)O)CC[C@@]1(C)c1cccc(O)c1 [ALVIMOPAN]: 0.08
